Ref: paper PMC4646457

# Experiment Description: in vivo
# Assay Setup: female, CB-17 SCID, mouse, BT474 tumor, po, 200 mg/kg, MRTlast, single dose
Value Type: MRT last (h)

>  <Compound>
CS(=O)(=O)CCNCc1ccc(-c2ccc3ncnc(Nc4ccc(OCc5cccc(F)c5)c(Cl)c4)c3c2)o1 [lapatinib]

>  <Quantitative Result>
17.5

$$$$

---

# Experiment Description: in vivo
# Assay Setup: female, CB-17 SCID, mouse, BT474 tumor, po, 200 mg/kg, Cmax, 200 mg/kg QD, multiple doses
Value Type: Cmax

>  <Entry Smiles>
CS(=O)(=O)CCNCc1ccc(-c2ccc3ncnc(Nc4ccc(OCc5cccc(F)c5)c(Cl)c4)c3c2)o1

>  <Value Type>
Cmax

>  <Result>
79.2 µg/mL

$$$$

---

# Experiment Description: in vivo
# Assay Setup: female, CB-17 SCID, mouse, kidney, oral, 200 mg/kg, AUClast, single dose

>  <Entry Smiles>
CS(=O)(=O)CCNCc1ccc(-c2ccc3ncnc(Nc4ccc(OCc5cccc(F)c5)c(Cl)c4)c3c2)o1

>  <AUC(0-t), µg·h/mL>
633

$$$$

---

# Experiment Description: in vivo
# Assay Setup: female, CB-17 SCID, mouse, kidney, oral, 200 mg/kg, Concentration, individual animals 1-3, kidney, 200 mg/kg QD, 24 h
Value Type: concentration at 24 h (ng/mL)

>  <Entry Smiles>
CS(=O)(=O)CCNCc1ccc(-c2ccc3ncnc(Nc4ccc(OCc5cccc(F)c5)c(Cl)c4)c3c2)o1

>  <Quantitative Result>
144

$$$$

---

# Experiment Description: in vivo
# Assay Setup: female, CB-17 SCID, mouse, kidney, oral, 100 mg/kg, Concentration, individual animals 1-3, kidney, 100 mg/kg BID, 72 h
Value Type: concentration at 72 h (ng/mL)

>  <Entry Smiles>
CS(=O)(=O)CCNCc1ccc(-c2ccc3ncnc(Nc4ccc(OCc5cccc(F)c5)c(Cl)c4)c3c2)o1

>  <Value Type>
concentration at 72 h

>  <Value Units>
ng/mL

>  <Quantitative Result>
94.5

$$$$

---

# Experiment Description: in vivo
# Assay Setup: female, CB-17 SCID, mouse, blood, po, 100 mg/kg, Cmax, 100 mg/kg BID, multiple doses

>  <Entry Smiles>
CS(=O)(=O)CCNCc1ccc(-c2ccc3ncnc(Nc4ccc(OCc5cccc(F)c5)c(Cl)c4)c3c2)o1

>  <Value Units>
ng/mL

>  <Cmax>
9350

$$$$

---

# Experiment Description: in vivo
# Assay Setup: female, CB-17 SCID, mouse, liver, po, 200 mg/kg, Cmax, 200 mg/kg QD, multiple doses

>  <Entry Smiles>
CS(=O)(=O)CCNCc1ccc(-c2ccc3ncnc(Nc4ccc(OCc5cccc(F)c5)c(Cl)c4)c3c2)o1

>  <Cmax / µg/mL>
240

$$$$

---

# Experiment Description: in vivo
# Assay Setup: female, CB-17 SCID, mouse, tumor, po, 100 mg/kg, AUC 0–12, tumor, median (range), n = 3, after fifth dose of 100 mg/kg BID

>  <Entry Smiles>
CS(=O)(=O)CCNCc1ccc(-c2ccc3ncnc(Nc4ccc(OCc5cccc(F)c5)c(Cl)c4)c3c2)o1

>  <AUC(0-t) (µM·h)>
396

$$$$

---

# Experiment Description: in vivo
# Assay Setup: female, CB-17 SCID, mouse, liver, oral, 200 mg/kg, Concentration, individual animals 1-3, liver, 200 mg/kg QD, 96 h
Value Type: concentration at 96 h (ng/mL)

>  <Compound>
CS(=O)(=O)CCNCc1ccc(-c2ccc3ncnc(Nc4ccc(OCc5cccc(F)c5)c(Cl)c4)c3c2)o1 [lapatinib]

>  <Quantitative Result>
98.3

$$$$

---

# Experiment Description: in vivo
# Assay Setup: female, CB-17 SCID, mouse, blood, po, 200 mg/kg, Cmax, 200 mg/kg QD, multiple doses

>  <Entry Smiles>
CS(=O)(=O)CCNCc1ccc(-c2ccc3ncnc(Nc4ccc(OCc5cccc(F)c5)c(Cl)c4)c3c2)o1

>  <Cmax / ng/mL>
16100

$$$$

---

# Experiment Description: in vivo
# Assay Setup: female, CB-17 SCID, mouse, kidney, po, 200 mg/kg, MRTlast, 200 mg/kg QD, multiple doses
Value Type: MRT last

>  <Entry Smiles>
CS(=O)(=O)CCNCc1ccc(-c2ccc3ncnc(Nc4ccc(OCc5cccc(F)c5)c(Cl)c4)c3c2)o1

>  <Result>
8 h

$$$$

---

# Experiment Description: EGF10027 steady-state lapatinib concentrations in patient plasma and tumor
# Format: in vivo, human
# Assay Setup: female, human, tumor, oral, 1000 mg, patients, median (range), 1000 mg QD (n = 5), steady state; read-out: Tumor Cmin
Value Type: concentration at 24 h (nM)

>  <Molecule>
CS(=O)(=O)CCNCc1ccc(-c2ccc3ncnc(Nc4ccc(OCc5cccc(F)c5)c(Cl)c4)c3c2)o1 [lapatinib]

>  <Quantitative Result>
2290

$$$$

---

# Experiment Description: in vivo
# Assay Setup: female, CB-17 SCID, mouse, kidney, oral, 200 mg/kg, Tmax, single dose
Value Type: Tmax (h)

>  <Entry Smiles>
CS(=O)(=O)CCNCc1ccc(-c2ccc3ncnc(Nc4ccc(OCc5cccc(F)c5)c(Cl)c4)c3c2)o1

>  <Quantitative Result>
12

$$$$

---

# Experiment Description: in vivo
# Assay Setup: female, CB-17 SCID, mouse, blood, po, 100 mg/kg, Tmax, 100 mg/kg BID, multiple doses

>  <Entry Smiles>
CS(=O)(=O)CCNCc1ccc(-c2ccc3ncnc(Nc4ccc(OCc5cccc(F)c5)c(Cl)c4)c3c2)o1

>  <Value Units>
h

>  <Tmax>
1

$$$$

---

# Experiment Description: in vivo
# Assay Setup: female, CB-17 SCID, mouse, BT474 tumor, po, 100 mg/kg, AUClast, 100 mg/kg BID, multiple doses
Value Type: AUC(0-t) (µg·h/mL)

>  <Entry Smiles>
CS(=O)(=O)CCNCc1ccc(-c2ccc3ncnc(Nc4ccc(OCc5cccc(F)c5)c(Cl)c4)c3c2)o1

>  <Quantitative Result>
1120

$$$$

---

# Experiment Description: in vivo
# Assay Setup: female, CB-17 SCID, mouse, kidney, oral, 100 mg/kg, Concentration, individual animals 1-3, kidney, 100 mg/kg BID, 4 h

>  <Molecule>
CS(=O)(=O)CCNCc1ccc(-c2ccc3ncnc(Nc4ccc(OCc5cccc(F)c5)c(Cl)c4)c3c2)o1 [lapatinib]

>  <concentration at 4 h>
72.3 µg/mL

$$$$

---

# Experiment Description: in vivo
# Assay Setup: female, CB-17 SCID, mouse, blood, po, 100 mg/kg, AUClast, 100 mg/kg BID, multiple doses
Value Type: AUC(0-t) (µg·h/mL)

>  <Entry Smiles>
CS(=O)(=O)CCNCc1ccc(-c2ccc3ncnc(Nc4ccc(OCc5cccc(F)c5)c(Cl)c4)c3c2)o1

>  <Quantitative Result>
102

$$$$

---

# Experiment Description: in vivo
# Assay Setup: female, CB-17 SCID, mouse, liver, po, 100 mg/kg, AUClast, 100 mg/kg BID, multiple doses

>  <Compound>
CS(=O)(=O)CCNCc1ccc(-c2ccc3ncnc(Nc4ccc(OCc5cccc(F)c5)c(Cl)c4)c3c2)o1 [lapatinib]

>  <AUC(0-t) [µg·h/mL]>
1380

$$$$

---

# Experiment Description: in vivo
# Assay Setup: female, CB-17 SCID, mouse, tumor, oral, 100 mg/kg, Concentration, individual animals 1-3, tumor, 100 mg/kg BID, 4 h

>  <Entry Smiles>
CS(=O)(=O)CCNCc1ccc(-c2ccc3ncnc(Nc4ccc(OCc5cccc(F)c5)c(Cl)c4)c3c2)o1

>  <concentration at 4 h / µg/mL>
51.4

$$$$

---

# Experiment Description: in vivo
# Assay Setup: female, CB-17 SCID, mouse, BT474 tumor, po, 200 mg/kg, AUClast, 200 mg/kg QD, multiple doses

>  <Compound>
CS(=O)(=O)CCNCc1ccc(-c2ccc3ncnc(Nc4ccc(OCc5cccc(F)c5)c(Cl)c4)c3c2)o1 [lapatinib]

>  <AUC(0-t) (µg·h/mL)>
1320

$$$$
